# key: entry, value: microsomal CLint at 1 μM
Assay: Metabolic stability in mouse liver microsomes
Format: in vitro ADME
Settings: pooled mouse liver microsomes, 0.5 mg/mL microsomes, NADPH, read-out: MLM Clint

>  <molecule>
CO[C@H](C(N)=O)[C@H](NC(=O)c1ccc(NC(=O)c2ccc(C#N)cc2)cc1)C(=O)Nc1ccc(C(=O)Nc2ccc(C(=O)Nc3ccc(C(=O)O)cc3)c(O)c2OC(C)C)cc1 [CN-861-2]

>  <microsomal CLint at 1 μM>
< 11.6 µL/min/mg

$$$$
>  <molecule>
C=CC1CC1(NC(=O)C12CC(NC(=O)c3ccc(C#N)cc3)(C1)C2)C(=O)Nc1ccc(C(=O)Nc2ccc(C(=O)Nc3ccc(C(=O)O)cc3)c(O)c2OC(C)C)cc1 (centres unmarked) [Cysto-180]

>  <microsomal CLint at 1 μM>
< 11.6 µL/min/mg

$$$$
